Taken from the MegaScale stability set (Tsuboyama et al. 2023).

B1: HEEH_KT_rd6_3632 (parent)
chain: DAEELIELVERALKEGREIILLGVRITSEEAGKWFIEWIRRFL

variants of: B1; experiment: folding stability dG (cDNA display proteolysis); higher = more stable; details: PBS, room temperature
Quick reference: folding stability dG of the listed items.
Please respond with the number in kcal/mol and leave the unit unwritten.

I26L    3.37
W38I    3.2

Q: Entry `E15N` : reported folding stability dG = ?
Result: 3.57

Q: Need folding stability dG, item `L5Q`
Result: 2.83

Q: Suppose we examine the variant `I26G` ; what folding stability dG value has been reported?
Result: 2.89

Q: Consider the variant `I39L` and give its measured folding stability dG.
Result: 4.03

Q: Quick one: folding stability dG for `K33Y` ?
Result: 3.61

Q: What value of folding stability dG has been recorded for this entry: `I19V`
Result: 3.4

Q: I would be grateful if you could share the reported folding stability dG for `R17D` .
Result: 2.99

Q: folding stability dG for `S28W` ?
Result: 3.91

Q: Which folding stability dG value belongs to `I6N` ?
Result: 3.11

Q: Would you mind telling me what folding stability dG value was observed for `W38L` ?
Result: 3.42

Q: Any idea what its folding stability dG is? The variant is `A31K`
Result: 3.6

Q: # get_value(readout='folding stability dG', item= `E4L` )
Result: 4.1

Q: What value of folding stability dG has been reported for the following variant? `F42I`
Result: 3.67

Q: Fill in: folding stability dG of `S28C` is ___
Result: 3.83

Q: Quick one: folding stability dG of `A31H` ?
Result: 3.68

Q: What value of measured folding stability dG is listed for `L8A` ?
Result: 3.47

Q: // folding stability dG lookup, key: `R25Y`
Result: 3.65

Q: Which folding stability dG reading was recorded for the variant `R40Y` ?
Result: 3.69

Q: State the recorded folding stability dG for this entry: `S28N`
Result: 3.78

Q: What value of folding stability dG has been reported for the following variant? `L22Q`
Result: 3.13
